system: A431 (epidermoid carcinoma); test: Antiproliferative activity (CCK-8 cell viability), A431; format: cell-based; conditions: Homo sapiens, A-431, Compound concentration: 10 μM, 72 h, read-out: Antiproliferative activity in cancerous cells, A431 (inhibition of cell growth)
quantity kind: inhibition at 10 µM

compound="CC1=C(CC(=O)O)c2cc(F)ccc2/C1=C\\c1ccc(CCOC2CCCCO2)cc1 (centres unmarked) [B47]" quantity_kind="inhibition at 10 µM" result="30 to 50%"
compound="CC1=C(CC(=O)O)c2c(F)cccc2/C1=C\\c1cccc(Oc2ccccc2)c1 [C21]" quantity_kind="inhibition at 10 µM" result="≥ 50%"
compound="O=C(O)CC1=C(Cc2ccc(C(F)(F)F)cc2)/C(=C/c2cccc(Oc3ccccc3)c2)c2ccc(F)cc21 [C13]" quantity_kind="inhibition at 10 µM" result="≥ 50%"
compound="CC1=C(CC(=O)O)c2cc(F)ccc2/C1=C\\c1cccc([S+]([O-])c2ccc(F)cc2)c1 (centres unmarked) [C43]" quantity_kind="inhibition at 10 µM" result="30 to 50%"
compound="CC1=C(CC(=O)O)c2cc(F)ccc2/C1=C\\c1ccc(Sc2ccc(F)cc2)cc1 [C47]" quantity_kind="inhibition at 10 µM" result="≥ 50%"
compound="CC1=C(CC(=O)O)c2cc(F)cc(F)c2/C1=C/c1cccc(COc2ccccc2)c1 [E7]" quantity_kind="inhibition at 10 µM" result="≥ 50%"
compound="O=C(O)CC1=C(C2CCc3ccc(F)cc32)/C(=C/c2ccc(Oc3ccc(F)cc3)cc2)c2ccc(F)cc21 (centres unmarked) [C12]" quantity_kind="inhibition at 10 µM" result="≥ 50%"

Now examine the next entry.
Query inhibition at 10 µM for COc1ccc(Oc2ccc(/C=C3/C(C)=C(CC(=O)O)c4cc(F)ccc43)cc2)cc1Cl [C70] ≥ 50%
